Provide the reported EC50 of each item.
# TARGET ENTITY: human receptor found in pancreatic islet cells (Homo sapiens)
# ASSAY INFO: Activation of intracellular IP3 signaling in transfected cells (Activation Assay)
# RUN CONDITIONS: calculated from IP3 concentration measurements in cells transfected with the human receptor

STRUCTURE SMILES	TARGET ENTITY	EC50
CNc1cc(-c2cc(NC(=O)[C@H](Cc3ccc(F)cc3)NCc3c[nH]nn3)[nH]n2)ccn1	human receptor found in pancreatic islet cells (Homo sapiens)	< 50 nM
Cc1cc(-c2cc(-c3n[nH]c(=S)o3)c3c(c2)N(C(=O)[C@H](Cc2ccccc2)NCc2cscn2)CC3)ccn1	human receptor found in pancreatic islet cells (Homo sapiens)	< 50 nM
Cc1cc(-c2cc(NC(=O)[C@H](Cc3ccc(F)cc3)NCc3cscn3)n(C)n2)ccn1	human receptor found in pancreatic islet cells (Homo sapiens)	< 50 nM

Param item: `COC(=O)CNC(=O)c1cc(-c2ccncc2)cc2c1CCN2C(=O)[C@H](Cc1ccccc1)NCc1cscn1` ; param system: human receptor found in pancreatic islet cells (Homo sapiens); output EC50: 100 to 1000 nM

---

# TARGET ENTITY: human receptor found in pancreatic islet cells (Homo sapiens, UniProt Q7Z601)
# ASSAY INFO: Activation of intracellular IP3 signaling in transfected cells (Activation Assay)
# RUN CONDITIONS: calculated from IP3 concentration measurements in cells transfected with the human receptor
pEC50: −log10 of the molar value. Where a name gives a salt, the structure may show the parent alone.
ASSAY READOUT: pEC50

As a guide, the following entries are already answered.
COMPOUND	TARGET ENTITY	ASSAY READOUT	RECORDED VALUE
CNc1cc(-c2cc(NC(=O)[C@H](Cc3ccccc3)NCC(=O)O)n(C)n2)ccn1	human receptor found in pancreatic islet cells (Homo sapiens, UniProt Q7Z601)	pEC50	> 7.30
CNc1cc(-c2cc(NC(=O)[C@H](Cc3ccc(F)cc3)NCc3cscn3)n(C(C)C)n2)ccn1	human receptor found in pancreatic islet cells (Homo sapiens, UniProt Q7Z601)	pEC50	7.00 to 7.30
Cc1ncc(CN[C@@H](Cc2ccccc2)C(=O)Nc2cccc(-c3ccncc3)c2)s1	human receptor found in pancreatic islet cells (Homo sapiens, UniProt Q7Z601)	pEC50	6.00 to 7.00

Parameter requested: pEC50. Apply to each item below.
1. CCn1nc(-c2ccnc(NC)c2)cc1NC(=O)[C@H](Cc1ccc(F)cc1)NCc1cscn1
2. Cc1cc(-c2nc(C)c(NC(=O)[C@H](Cc3ccc(F)cc3)NCc3cscn3)s2)ccn1
3. CNc1cc(-c2cc(NC(=O)[C@H](Cc3ccccc3)NCc3cscn3)n(C)n2)ccn1
4. O=C(Nc1nccc(-c2ccncc2)n1)[C@H](Cc1ccccc1)NCc1cscn1
5. O=C(Nc1cccc(-c2ccncc2)c1)[C@H](Cc1ccccc1)NCC1CCOC1 (stereo partly shown) [Example 34.11, TFA salt]

Given back:
1. > 7.30
2. 7.00 to 7.30
3. > 7.30
4. 6.00 to 7.00
5. 5.00 to 6.00

Please look at the items below and tell me pEC50 for each one, in order.
1. C[C@H](N[C@@H](Cc1ccccc1)C(=O)Nc1nnc(-c2ccncc2)s1)c1cscn1
2. O=C(O)c1cc(NC(=O)[C@H](Cc2ccccc2)NCc2cc[nH]n2)cc(-c2ccncc2)c1
3. COc1ncc(-c2cc[nH]n2)cc1NC(=O)[C@H](Cc1ccccc1)NCc1cscn1
4. CC(C)n1nc(-c2ccncc2)cc1NC(=O)[C@H](Cc1ccc(Cl)cc1)NCC(=O)O
5. O=C(Nc1cccc(-c2ccncc2)c1)[C@H](Cc1ccccc1)NCc1cncs1
6. COc1ncc(-c2ccnc(C)c2)cc1NC(=O)[C@H](Cc1ccccc1)NC1(c2ccccn2)CC1
7. CNc1nccc(-c2cc(NC(=O)[C@H](Cc3ccc(F)cc3)NCc3cscn3)n(C)n2)n1

Given back:
7.00 to 7.30
6.00 to 7.00
7.00 to 7.30
7.00 to 7.30
6.00 to 7.00
6.00 to 7.00
6.00 to 7.00

# pEC50 of `O=C(Nc1cc(-c2ccncc2)ccc1O)[C@H](Cc1ccccc1)NCc1cscn1` = > 7.30

---

# TARGET ENTITY: human receptor found in pancreatic islet cells (Homo sapiens)
# Sequence (Q7Z601 1-462): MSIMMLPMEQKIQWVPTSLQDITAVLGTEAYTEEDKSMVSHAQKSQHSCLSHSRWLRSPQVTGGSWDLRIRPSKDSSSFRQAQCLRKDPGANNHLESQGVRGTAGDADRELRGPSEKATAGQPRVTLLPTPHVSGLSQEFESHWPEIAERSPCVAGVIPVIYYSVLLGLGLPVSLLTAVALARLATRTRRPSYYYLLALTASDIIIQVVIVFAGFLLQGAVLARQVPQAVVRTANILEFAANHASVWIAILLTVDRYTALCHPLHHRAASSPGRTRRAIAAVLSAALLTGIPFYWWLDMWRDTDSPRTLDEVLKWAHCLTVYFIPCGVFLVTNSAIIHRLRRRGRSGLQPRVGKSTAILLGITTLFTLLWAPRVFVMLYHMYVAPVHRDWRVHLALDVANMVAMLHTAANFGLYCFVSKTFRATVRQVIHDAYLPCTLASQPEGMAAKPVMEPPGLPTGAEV
# ASSAY INFO: Activation of intracellular IP3 signaling in transfected cells (Activation Assay)
# RUN CONDITIONS: calculated from IP3 concentration measurements in cells transfected with the human receptor
pEC50: −log10 of the molar value. Where a name gives a salt, the structure may show the parent alone.
ASSAY READOUT: pEC50

Use the examples below as a reference point.
COMPOUND	pEC50
O=C(Nc1cccc(-c2cc[nH]n2)c1)[C@H](Cc1ccccc1)NCc1cscn1	7.00 to 7.30
O=C([C@H](Cc1ccccc1)NCc1cscn1)N1CCc2ccc(-c3cncnc3)cc21	5.00 to 6.00
O=C(Nc1cccc(-c2ccncc2)c1)[C@@H](Cc1ccccc1)NCc1nccs1 [Example 34.7, trifluoroacetate]	5.00 to 6.00
CNc1cc(-c2cc(NC(=O)[C@H](Cc3ccc(F)cc3)NCc3cscn3)[nH]n2)ccn1	> 7.30
COc1ncc(-c2ccncc2)cc1NC(=O)[C@H](Cc1ccccc1)N[C@@H](C)c1ccccn1	6.00 to 7.00
O=C(O)c1cc(NC(=O)[C@H](Cc2ccccc2)NCc2cn[nH]c2)cc(-c2ccncc2)c1	5.00 to 6.00
O=C(Nc1cccc(-c2ccncc2)c1)[C@H](Cc1ccccc1)NCc1cscn1	7.00 to 7.30
COc1ncc(-c2cc[nH]n2)cc1NC(=O)[C@H](Cc1ccccc1)NC1(c2cscn2)CC1	6.00 to 7.00

Parameter requested: pEC50. Apply to each item below.
1. O=C(Nc1cc(-c2ccncc2)no1)[C@H](Cc1ccc(Cl)cc1)NCc1cscn1
2. COC(=O)c1cc(-c2ccncc2)cc2c1CCN2C(=O)[C@H](Cc1ccc(F)cc1)NCc1cscn1
3. O=C(Nc1cccc(-c2ccncc2)c1)[C@H](Cc1ccccc1)NCCC1CCOCC1
4. O=C(Nc1nnc(-c2ccncc2)s1)[C@H](Cc1cccc(F)c1)NCc1cscn1
5. CCn1nc(-c2ccncc2)cc1NC(=O)[C@H](Cc1ccccc1)NCCCc1ccccn1
6. N[C@@H](Cc1ccccc1)C(=O)Nc1cc(C(=O)O)cc(-c2ccncc2)c1

Given back:
6.00 to 7.00
7.00 to 7.30
6.00 to 7.00
7.00 to 7.30
> 7.30
5.00 to 6.00

---

Could you please report measured pEC50 for the items listed next?
# TARGET ENTITY: human receptor found in pancreatic islet cells (Homo sapiens, UniProt Q7Z601)
# ASSAY INFO: Activation of intracellular IP3 signaling in transfected cells (Activation Assay)
# RUN CONDITIONS: calculated from IP3 concentration measurements in cells transfected with the human receptor
pEC50: −log10 of the molar value. Where a name gives a salt, the structure may show the parent alone.

MOLECULE	pEC50
COc1ncc(-c2ccncc2)cc1NC(=O)[C@H](Cc1ccccc1)NC1(c2ccccn2)CC1 [Example 11.1]	> 7.30

Below are some molecules; for each one, tell me its pEC50.
1. Cc1cc(-c2cc(NC(=O)[C@H](Cc3ccc(F)cc3)NCC(=O)O)[nH]n2)ccn1 [Example 21.2, dihydrochloride]
2. Cc1cc(-c2cc(NC(=O)[C@H](Cc3ccccc3)NCc3ccccn3)cc(NS(C)(=O)=O)c2)ccn1 [Example 51.2]

Given back:
1. > 7.30
2. 7.00 to 7.30

Please go through the list and note pEC50 for each molecule.
1. O=C(NCCN1CCNC1=O)c1cc(-c2ccncc2)cc2c1CCN2C(=O)[C@H](Cc1ccccc1)NCc1cscn1 [Example 81]
2. NC(=O)c1cc(NC(=O)[C@H](Cc2ccccc2)NCc2cscn2)cc(-c2ccncc2)c1 [Example 47]
3. Cc1cc(-c2ccc3c(c2)N(C(=O)[C@H](Cc2ccccc2)NCc2cscn2)CC3)ccn1 [Example 56]
4. CN(C)C(=O)c1cc(NC(=O)[C@H](Cc2ccccc2)NCc2cscn2)cc(-c2ccncc2)c1 [Example 55]
5. CNc1cc(-c2cc(NC(=O)[C@H](Cc3ccc(F)cc3)NCc3cscn3)n(C)n2)ccn1 [Example 23.5]
6. COC(=O)c1cc(-c2ccncc2)cc2c1CCN2C(=O)[C@H](Cc1ccc(F)cc1)NCc1ccccn1 [Example 54.7]
7. CNc1cc(-c2cc(NC(=O)[C@H](Cc3ccc(F)cc3)NCc3c[nH]nn3)n(C)n2)ccn1 [Example 23.7]

Given back:
1: 6.00 to 7.00; 2: 7.00 to 7.30; 3: 7.00 to 7.30; 4: 6.00 to 7.00; 5: > 7.30; 6: 7.00 to 7.30; 7: > 7.30
